- EXPERIMENTAL_TARGET: T1, HtrA1 (human, UniProt Q92743 23-480, biotin on lysines (Sulfo-NHS-LC-biotin) for panning and SPR)
- T1 construct: also called HtrA1 FL; human full-length HtrA1
- T1 sequence (Q92743 23-480): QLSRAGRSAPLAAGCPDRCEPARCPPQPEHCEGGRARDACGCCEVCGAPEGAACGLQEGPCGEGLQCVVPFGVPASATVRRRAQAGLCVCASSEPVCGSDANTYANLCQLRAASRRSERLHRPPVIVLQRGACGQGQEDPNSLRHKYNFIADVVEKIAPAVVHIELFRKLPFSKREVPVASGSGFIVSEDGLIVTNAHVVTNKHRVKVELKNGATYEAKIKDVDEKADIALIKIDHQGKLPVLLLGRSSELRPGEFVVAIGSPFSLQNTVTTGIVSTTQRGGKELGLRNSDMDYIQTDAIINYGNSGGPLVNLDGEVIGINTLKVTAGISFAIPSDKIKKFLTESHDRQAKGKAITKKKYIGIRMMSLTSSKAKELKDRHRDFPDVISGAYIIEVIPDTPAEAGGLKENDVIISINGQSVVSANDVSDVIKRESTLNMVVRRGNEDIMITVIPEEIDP
- TEST_PROTOCOL: ELISA
- ASSAY_CONDITIONS: one partner purified
Each entry below lists one item and its recorded ELISA value.
VALUE_KIND: ELISA

- WIPCISAALGCSCKNKVCYFLYQICGESCV (designed binder) [HtrA1_CirA38 displayed on M13 phage]: 2.1
- WIPCISAALGCSCKNKVCYIFSKHLCGESCV (designed binder) [HtrA1_CirA65 displayed on M13 phage]: 2.2
- ACKGVFDACTWKNWRQSRSRECCPNAVCSDKHKWCKWKL (designed binder, Huwentoxin scaffold) [HtrA1_HwTx69 displayed on M13 phage]: 0.9
- GCHRPWWQLWGLCKQDSDCLAGCVCGPNGFCG (designed binder) [HtrA1_EET76 displayed on M13 phage]: 1
- ECKGKGAKCSIQWSVYPWKVCCTGSCRSGKC (designed binder, Conotoxin-MVIIA scaffold) [HtrA1_CnTx83 displayed on M13 phage]: 1.1
